Recorded measurements of DBIL, one per entry
# Species: Rattus norvegicus
# assay_text: Open TG-GATES - Regimen: Single
# Type: toxicity, organism-based, Sprague-Dawley
# Design: regimen Single, gender Male, age 6 weeks
# test_parameters: in vivo, po, 0 mg/kg, 9 h, tissue Plasma, route gavage, dose level Control
parameter_measured: DBIL (mg/dL)

compound	parameter_measured	measurement_units	measured_result
Cc1cccc(C)c1OCC(C)N (centres undefined)	DBIL	mg/dL	0
CCOC(=O)C(C)(C)Oc1ccc(Cl)cc1 [CLOFIBRATE]	DBIL	mg/dL	0.082
C[C@H]1C(=O)O[C@@H]2CCN3CC=C(COC(=O)[C@](C)(O)[C@]1(C)O)[C@H]23	DBIL	mg/dL	0.004
C=C(C)[C@H]1Cc2c(ccc3c2O[C@@H]2COc4cc(OC)c(OC)cc4[C@@H]2C3=O)O1	DBIL	mg/dL	0.01
Cn1cc[nH]c1=S	DBIL	mg/dL	0.002
Cc1ccc2cc3c(ccc4ccccc43)c3c2c1CC3	DBIL	mg/dL	0.004
O=[N+]([O-])c1ccc(O)c([N+](=O)[O-])c1	DBIL	mg/dL	0.01
C[C@H]1O[C@H](O[C@H]2[C@H](O)[C@@H](O)[C@@H](O[C@H]3[C@H](O)[C@@H](O)C(O)O[C@@H]3CO)O[C@@H]2CO)[C@H](O)[C@@H](O)[C@@H]1N[C@H]1C=C(CO)[C@@H](O)[C@H](O)[C@H]1O (some centres undefined)	DBIL	mg/dL	0.006
OCCN1CCN(CCCN2c3ccccc3Sc3ccc(C(F)(F)F)cc32)CC1	DBIL	mg/dL	0.012

###

# Species on record: Rattus norvegicus
# assay_text: Open TG-GATES - Regimen: Single
# Type: toxicity, organism-based, Sprague-Dawley
# Parameters: regimen Single, gender Male, age 6 weeks
# test_parameters: in vivo, po, 0 mg/kg, 3 h, tissue Plasma, route gavage, dose level Control
# Lookup of reported IP keyed by entry

compound	IP [mg/dL]
Cc1ccc2cc3c(ccc4ccccc43)c3c2c1CC3 [3-METHYLCHOLANTHRENE]	7.7
C[C@H]1O[C@H](O[C@H]2[C@H](O)[C@@H](O)[C@@H](O[C@H]3[C@H](O)[C@@H](O)C(O)O[C@@H]3CO)O[C@@H]2CO)[C@H](O)[C@@H](O)[C@@H]1N[C@H]1C=C(CO)[C@@H](O)[C@H](O)[C@H]1O (some centres undefined) [ACARBOSE]	9.5
CCOC(=O)C(C)(C)Oc1ccc(Cl)cc1 [CLOFIBRATE]	8.4
C[C@H]1C(=O)O[C@@H]2CCN3CC=C(COC(=O)[C@](C)(O)[C@]1(C)O)[C@H]23 [MONOCROTALINE]	8.3
O=[N+]([O-])c1ccc(O)c([N+](=O)[O-])c1 [2,4-DINITROPHENOL]	9.4
OCCN1CCN(CCCN2c3ccccc3Sc3ccc(C(F)(F)F)cc32)CC1 [FLUPHENAZINE]	10.3
Cn1cc[nH]c1=S [METHIMAZOLE]	8.2
Cc1cccc(C)c1OCC(C)N (centres undefined) [MEXILETINE]	8.5
C=C(C)[C@H]1Cc2c(ccc3c2O[C@@H]2COc4cc(OC)c(OC)cc4[C@@H]2C3=O)O1 [ROTENONE]	8.3
